Task for the reader: assign each of the following compounds its reported TGI.
system: SK-MEL-28 melanoma; test: NCI tumour cell line growth inhibition, 48 h

Value sought: TGI, system SK-MEL-28 melanoma, item NC(=O)c1csc(C2O[C@@H](COP(=O)(O)OP(=O)(O)OC[C@H]3OC(n4cnc5c(N)ncnc54)[C@H](O)[C@@H]3O)[C@H](O)[C@@H]2O)n1 (some centres not stated) . Result: > 100 µM

Value sought: TGI, system SK-MEL-28 melanoma, item CNc1nc2c(C)ccc3nc(N(C)C)nc-3c2n1C . Result: > 10 µM

Value sought: TGI, system SK-MEL-28 melanoma, item COc1cc(-c2cc(C(=O)Nc3nc4ccccc4s3)nc3cc(-c4ccccc4)nn23)cc(OC)c1OC . Result: > 100 µM

Value sought: TGI, system SK-MEL-28 melanoma, item CS(=O)(=O)c1ccc(Oc2nccc(-c3c(-c4ccc(F)cc4)ncn3C3CCNCC3)n2)cc1 . Result: > 25 µM

Value sought: TGI, system SK-MEL-28 melanoma, item N#Cc1cccc(Nc2ccccc2SSc2ccccc2Nc2cccc(C#N)c2)c1 . Result: > 21.5 µM

Value sought: TGI, system SK-MEL-28 melanoma, item O=c1cnn(C/C=C/CP(=O)(O)O)c(=O)[nH]1 . Result: > 100 µM

Value sought: TGI, system SK-MEL-28 melanoma, item O=C1CSC2(CC(/C=C/c3cccc(Br)c3)=NN2c2cccc(S(=O)(=O)O)c2)N1c1nc2ccccc2s1 (configuration not stated) . Result: > 100 µM

Value sought: TGI, system SK-MEL-28 melanoma, item CCOC(=O)NC(OCCN(C)C)(C(F)(F)F)C(F)(F)F . Result: > 100 µM

Value sought: TGI, system SK-MEL-28 melanoma, item O=C1CCCSCCCC(=O)CCCSCCC1 . Result: > 100 µM

Value sought: TGI, system SK-MEL-28 melanoma, item CC(=O)CC(=O)CCCC(=O)Nc1ccc(Cl)cc1Cl . Result: > 100 µM

Value sought: TGI, system SK-MEL-28 melanoma, item CCOC(=O)NC(Nc1cccc(F)c1)(C(F)(F)F)C(F)(F)F . Result: > 100 µM

Value sought: TGI, system SK-MEL-28 melanoma, item COc1ccc2c(c1)nc1n2C(c2c(F)cccc2F)SC1 (configuration not stated) . Result: > 100 µM

* * *

tested on: MDA-N; experiment: NCI tumour cell line growth inhibition, 48 h
METRIC: TGI

Lab book: TGI of COC(=O)C1=C(O)C(C(=O)OC)[C@]2(O)[C@H](C(=O)OC)[C@H]1C[C@@H](c1ccc(O)cc1)[C@H]2C(=O)OC (some centres not stated) noted as > 100 µM

Lab book: TGI of C[C@@H]1C(=O)O[C@@H]2C[C@@]1(C)[C@@H]1C(=O)C3(O)OC14C2(C)OC(=O)[C@@]4(O)CCC1C3C(O)C=C2CC=CC(=O)[C@@]21C (some centres not stated) noted as > 100 µM

Lab book: TGI of CC(=O)N1c2ccccc2C2=NN=C(N(C)C)SC21 (configuration not stated) noted as 19.7 µM

Lab book: TGI of CCOC(=O)c1csc(NC(=O)CN2CCCCC2)n1 noted as > 100 µM

Lab book: TGI of O=C1c2cccnc2-c2nc(-c3ccccn3)cc3c2c1nc1ccccc13 noted as 1.25 µM

Lab book: TGI of CC(C)/C(Cl)=N/OC(NC(=O)Nc1ccc(Cl)c(Cl)c1)(C(F)(F)F)C(F)(F)F noted as 32.3 µM

Lab book: TGI of COC(=O)/N=[N+](\[O-])C(c1ccc(Cl)cc1)c1ccc(Cl)cc1 noted as > 100 µM

Lab book: TGI of O=c1oc2ccccc2cc1-c1ccc([N+](=O)[O-])cc1 noted as > 100 µM

Lab book: TGI of CC(C)C(=O)CC(Sc1ccc(N)cc1)c1ccccc1 (configuration not stated) noted as 35.5 µM

Lab book: TGI of CSC1=C(C)S/C(=C\c2ccc(/C=C3\SC(C)=C(SC)S3)cc2)S1 noted as > 100 µM

Lab book: TGI of [N-]=[N+]=NC1(c2ccccc2)C(=O)c2cccc3c4ccccc4n(c23)C1=O (configuration not stated) noted as > 100 µM

Lab book: TGI of CCCCC1=C(C(=O)N2CCOCC2)C2(OCCO2)C1Cl (configuration not stated) noted as 39.7 µM
